The reported measurements were obtained from patent US20150352108A1.

# IC50 per record follows
Molecular target: IKKε (Homo sapiens)
Construct: His-tag; made in house; host or cells: Sf9 insect cells
Sequence (Q14164 1-716): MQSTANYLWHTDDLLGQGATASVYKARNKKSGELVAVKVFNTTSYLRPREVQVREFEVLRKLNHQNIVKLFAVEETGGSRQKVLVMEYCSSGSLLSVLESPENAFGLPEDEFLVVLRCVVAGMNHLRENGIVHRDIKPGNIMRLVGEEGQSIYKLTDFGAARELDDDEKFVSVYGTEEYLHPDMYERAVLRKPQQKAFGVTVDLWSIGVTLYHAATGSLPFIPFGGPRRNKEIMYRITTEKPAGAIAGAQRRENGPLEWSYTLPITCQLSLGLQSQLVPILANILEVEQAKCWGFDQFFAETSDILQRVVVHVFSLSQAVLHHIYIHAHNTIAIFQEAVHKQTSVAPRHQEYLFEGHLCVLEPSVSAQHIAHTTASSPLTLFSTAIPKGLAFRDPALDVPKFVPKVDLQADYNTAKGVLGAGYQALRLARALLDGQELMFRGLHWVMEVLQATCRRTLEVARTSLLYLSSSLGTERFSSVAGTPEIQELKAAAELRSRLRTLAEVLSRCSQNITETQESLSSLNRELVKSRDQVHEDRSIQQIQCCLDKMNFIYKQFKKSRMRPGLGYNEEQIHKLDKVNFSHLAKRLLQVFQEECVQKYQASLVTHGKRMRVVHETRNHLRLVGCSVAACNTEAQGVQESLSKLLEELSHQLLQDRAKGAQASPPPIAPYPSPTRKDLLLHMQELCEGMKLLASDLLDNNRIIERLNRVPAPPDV
Assay: In-vitro IKKε kinase assay ([γ33]ATP filter-plate)
Format: biochemical
Details: text bins; read-out: IC50 for inhibition of the kinase activity of IKKε

Below, 4 molecules whose answers are already recorded.
Q: Quick check: IC50 of N#Cc1cc(-c2ccnc(Nc3cccc(F)c3)n2)ccc1O[C@@H]1CCN(C(=O)CO)C1 ?
Result: 5 to 50 nM

Q: Quick check: IC50 of COc1ccc(-c2ccnc(Nc3ccc(OC4CCN(C)CC4)c(OC)c3)n2)cc1C#N ?
Result: 5 to 50 nM

Q: Quick check: IC50 of CC1(COc2ccc(-c3ccnc(Nc4ccc(N5CCOCC5)cc4)n3)cc2C#N)COC1 ?
Result: < 5 nM

Q: Quick check: IC50 of COc1ccc(Nc2nccc(-c3ccc(Cl)c(C#N)c3)n2)cc1OC ?
Result: 5 to 50 nM

Others:
Q: Quick check: IC50 of COc1cc(NC(=O)N2CCCC(O)C2)cc(Nc2nccc(-c3ccc(OC)c(C#N)c3)n2)c1 (centres unmarked) ?
Result: 5 to 50 nM
